# method.summary: in vivo
# conditions.used: CD-1, mouse, brain and plasma
# Description: Ratio of AUC(0 to 72 hrs) in CD-1 mouse brain to plasma by LC-MS/MS analysis
parameter: Kp
Just the number, please.

Task: Reported Kp, compound `C[C@H](CC[C@](C)(O)C(F)(F)F)[C@H]1CC[C@H]2[C@@H]3CC=C4C[C@@](C)(O)CC[C@]4(C)[C@H]3CC[C@]12C` : ____
Result: 1.8

###

# method.summary: Drug concentration in CD-1 mouse brain at 10 mg/kg, ip administered for 90 mins
# Format: ADME, organism-based
# conditions.used: read-out: Ct
parameter: concentration at 1.5 h (ng/g)
Entry rule: numbers only, all in ng/g.

Task: Reported concentration at 1.5 h, compound `C[C@H](CC[C@](C)(O)C(F)(F)F)[C@H]1CC[C@H]2[C@@H]3CC=C4C[C@@](C)(O)CC[C@]4(C)[C@H]3CC[C@]12C` : ____
Result: 1610
